melting point reference
MEASUREMENT_LABEL: melting point

CC12CCC(c3c(C(=O)NNc4ncccc4Cl)nn(-c4ccc(Cl)cc4Cl)c31)C2(C)C (stereo not drawn)	142 to 145 °C
O=C(NNc1ccc(F)cc1F)c1nn(-c2ccc(Cl)cc2)c2c1C1CC3CC(C1)CC2C3	195 to 196 °C
O=C(NCC1CCCCC1)c1nn(-c2ccc(Cl)cc2)c2c1C1CC3CC(C1)CC2C3	117 °C

====

MEASUREMENT_LABEL: melting point (°C)

O=C(NCc1ccccc1)c1nn(-c2ccccc2Br)c2c1C1CCC2C1 (stereo not shown)	110
O=C(NCc1ccccc1F)c1nn(-c2ccc(Cl)cc2Cl)c2c1C1CCC2C1 (stereo not shown)	54
O=C(NNc1ccccc1)c1nn(-c2ccc(F)cc2F)c2c1C1CCC2C1 (stereo not shown)	161

====

TARGET_DESC: UniProtKB P20272
Sequence (P20272 whole entry): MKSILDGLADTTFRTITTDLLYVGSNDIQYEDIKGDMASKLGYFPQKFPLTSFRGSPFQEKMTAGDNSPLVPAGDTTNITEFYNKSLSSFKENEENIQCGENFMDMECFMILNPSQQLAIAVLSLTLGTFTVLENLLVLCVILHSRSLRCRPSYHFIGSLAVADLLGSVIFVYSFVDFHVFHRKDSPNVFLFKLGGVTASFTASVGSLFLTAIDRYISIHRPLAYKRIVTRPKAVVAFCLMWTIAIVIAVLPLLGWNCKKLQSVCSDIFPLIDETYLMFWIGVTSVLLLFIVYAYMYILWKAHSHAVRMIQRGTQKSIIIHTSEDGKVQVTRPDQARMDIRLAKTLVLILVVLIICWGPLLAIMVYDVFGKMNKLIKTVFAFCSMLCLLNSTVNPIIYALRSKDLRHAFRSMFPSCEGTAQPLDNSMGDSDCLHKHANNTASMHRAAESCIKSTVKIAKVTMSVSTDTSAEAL
RUN_DESCRIPTION: GTPγS binding assay, CB1 functional assay in rat cerebellar membrane (Protocol VIII)
Type: biochemical
Set-up: 10 μg rat cerebellum membrane; from tissue; host or cells: rat cerebellum membrane, prepared in-house
ASSAY_SETUP: 1 h, GTPγS binding over basal, rat cerebellar membrane, tested at 300 nM; read-out: Per Se % Stimulation
activation at 0.3 µM reference
MEASUREMENT_LABEL: activation at 0.3 µM

O=C(NC12CC3CC(CC(C3)C1)C2)c1nn(-c2ccc(Cl)cc2Cl)c2c1C1CCC2C1 (stereo not drawn)	33.4%
C[C@@H](NC(=O)c1nn(-c2ccc(Cl)cc2Cl)c2c1C1CCC2C1)c1ccccc1 (stereo partly drawn)	-9.3%
O=C(NNc1ncccc1Cl)c1nn(-c2ccc(Cl)cc2Cl)c2c1C1CCC2C1 (stereo not drawn)	12.3%
O=C(NNc1ncccc1Cl)c1nn(-c2ccc(Cl)cc2)c2c1C1CC3CC(C1)CC2C3	-6%
C[C@H](NC(=O)c1nn(-c2ccc(Cl)cc2)c2c1C1CC3CC(C1)CC2C3)c1ccccc1	4.4%
CC(C)(NC(=O)c1nn(-c2ccc(F)cc2F)c2c1C1CCC2C1)c1ccccc1 (stereo not drawn)	103%
Cc1ccc(-n2nc(C(=O)NCc3ccccc3Cl)c3c2C2CC4CC(CC3C4)C2)cc1	-29.2%
CC(C)(NC(=O)c1nn(-c2ccc(Cl)cc2)c2c1C1CC3CC(C1)CC2C3)c1ccccc1	46%
CC12CCC(C1)C(C)(C)C2NC(=O)c1nn(-c2ccc(Cl)cc2Cl)c2c1C1CCC2C1 (stereo not drawn)	54.7%

====

TARGET_DESC: hCB2 (Homo sapiens, UniProt P34972)
Sequence (P34972 whole entry): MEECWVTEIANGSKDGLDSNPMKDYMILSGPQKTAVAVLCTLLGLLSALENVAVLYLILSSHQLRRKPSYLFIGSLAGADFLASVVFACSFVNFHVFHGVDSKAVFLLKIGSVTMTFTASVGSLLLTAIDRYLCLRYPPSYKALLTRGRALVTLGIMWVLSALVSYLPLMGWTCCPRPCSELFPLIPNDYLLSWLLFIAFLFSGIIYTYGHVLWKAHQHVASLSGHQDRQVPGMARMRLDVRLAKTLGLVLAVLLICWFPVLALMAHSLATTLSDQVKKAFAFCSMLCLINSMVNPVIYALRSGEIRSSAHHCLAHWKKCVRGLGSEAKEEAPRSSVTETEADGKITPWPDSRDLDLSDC
RUN_DESCRIPTION: In vitro binding assay using hCB2-CHO membranes, [3H]-CP-55,940 displacement (Protocol IV)
Set-up: expressed in transfected cells; host or cells: CHO (hCB2-CHO, generated in-house)
ASSAY_SETUP: 1 h; hCB2-CHO membranes, [3H]-CP-55,940 displacement; read-out: % Displacement Protocol IV
So basically: inhibition at 0.3 µM at 30% or higher? That is YES. Lower than 30%? That is NO.

O=C(NNc1ccc(Cl)c(Cl)c1)c1nn(-c2ccc(Cl)cc2Cl)c2c1C1CCC2C1 (centres unmarked)	YES
CC(NC(=O)c1nn(-c2ccc(F)cc2F)c2c1C1CC3CC(C1)CC2C3)c1ccccc1Cl (centres unmarked)	YES
O=C(NCc1ccc(Cl)cc1)c1nn(-c2ccc(Cl)cc2Cl)c2c1C1CCC2C1 (centres unmarked)	NO
O=C(Nc1ccc(Cl)cc1)c1nn(-c2ccc(Cl)cc2)c2c1C1CCC2C1 (centres unmarked)	NO
CC(C)(C)NC(=O)c1nn(-c2ccc(Cl)cc2Cl)c2c1C1CCC2C1 (centres unmarked)	YES
O=C(NCc1ccccc1)c1n[nH]c2c1C1CC3CC(CC2C3)C1	YES
COc1ccc(-n2nc(C(=O)NCc3ccccc3Cl)c3c2C2CC4CC(CC3C4)C2)cc1	NO
CC12CCC(c3c(C(=O)NNc4ccccc4F)nn(-c4ccc(Cl)cc4Cl)c31)C2(C)C (centres unmarked)	NO

====

melting point reference
MEASUREMENT_LABEL: melting point

O=C(NNc1ccccc1)c1nn(-c2ccc(Cl)cc2)c2c1C1CC3CC(C1)CC2C3	103 to 105 °C
O=C(NNc1ccc(Cl)c(Cl)c1)c1nn(-c2ccc(Cl)cc2Cl)c2c1C1CCC2C1 (centres unmarked)	176 to 179 °C
C[C@H](NC(=O)c1nn(-c2ccc(Cl)cc2)c2c1C1CC3CC(C1)CC2C3)c1ccccc1	85 to 86 °C
O=C(NNc1cccc(F)c1)c1nn(-c2ccc(Cl)cc2)c2c1C1CC3CC(C1)CC2C3	203 °C
O=C(NCc1ccccc1)c1nn(-c2ccccc2Br)c2c1C1CC3CC(C1)CC2C3	20 °C
O=C(NNc1ccccc1Cl)c1nn(-c2ccc(Cl)cc2Cl)c2c1C1CCC2C1 (centres unmarked)	180 to 183 °C
CC(C)(NC(=O)c1nn(-c2ccc(F)cc2)c2c1C1CC3CC(C1)CC2C3)c1ccccc1	180 to 182 °C
CC1(NC(=O)c2nn(-c3ccc(F)cc3F)c3c2C2CCC3C2)C2CC3CC(C2)CC1C3 (centres unmarked)	60 °C
O=C(NNc1ccccc1)c1nn(-c2ccc(Cl)cc2Cl)c2c1C1CC3CC(C1)CC2C3	162 to 163 °C
CN(NC(=O)c1nn(-c2ccc(Cl)cc2Cl)c2c1C1CCC2C1)c1ccccc1Cl (centres unmarked)	121 to 124 °C
CC(C)(NC(=O)c1nn(-c2ccc(F)cc2F)c2c1C1CCC2C1)c1ccccc1 (centres unmarked)	105 °C
O=C(NCc1ccncc1)c1nn(-c2ccc(Cl)cc2)c2c1C1CC3CC(C1)CC2C3	167 to 168 °C
CC(C)(NC(=O)c1nn(-c2ccc(F)cc2F)c2c1C1CCC2C1)c1ccccc1Cl (centres unmarked)	176 to 179 °C
O=C(NC1CCCC1)c1nn(-c2ccc(Cl)cc2)c2c1C1CCC2C1 (centres unmarked)	176 to 178 °C
O=C(NN1CCCCC1)c1nn(-c2ccc(Cl)cc2)c2c1C1CCC2C1 (centres unmarked)	78 to 81 °C
COC(=O)[C@H](NC(=O)c1nn(-c2ccc(F)cc2F)c2c1C1CCC2(C)C1(C)C)c1ccccc1 (some centres unmarked)	107 to 109 °C
O=C(NC1CCCCC1)c1nn(-c2ccc(Br)cc2)c2c1C1CCC2C1 (centres unmarked)	164 °C

====

TARGET_DESC: hCB2 (Homo sapiens, UniProt P34972)
RUN_DESCRIPTION: In vitro binding assay using hCB2-CHO membranes, [3H]-CP-55,940 displacement (Protocol IV)
Parameters: expressed in transfected cells; host or cells: CHO (hCB2-CHO, generated in-house)
ASSAY_SETUP: 1 h, read-out: % Displacement Protocol IV
inhibition at 0.3 µM reference
MEASUREMENT_LABEL: inhibition at 0.3 µM (%)

O=C(NC12CC3CC(CC(C3)C1)C2)c1nn(-c2ccc(F)cc2)c2c1C1CCC2C1 (centres unmarked)	94.8
O=C(NCc1ccc(Cl)cc1Cl)c1nn(-c2ccc(F)cc2F)c2c1C1CCC2C1 (centres unmarked)	70.3
CC[C@H](NC(=O)c1nn(-c2ccc(F)cc2F)c2c1C1CCC2C1)c1ccccc1 (some centres unmarked)	90.1
O=C(NC1CCC1)c1nn(-c2ccc(F)cc2F)c2c1C1CCC2C1 (centres unmarked)	64.2
CC12CCC(c3c(C(=O)NC45CC6CC(CC(C6)C4)C5)nn(-c4ccc(F)cc4F)c31)C2(C)C (centres unmarked)	87.9
O=C(NC12CC3CC(CC(C3)C1)C2)c1nn(-c2ccc(F)cc2F)c2c1C1CCC2C1 (centres unmarked)	100
O=C(Nc1ccc(F)cc1F)c1nn(-c2ccc(Cl)cc2Cl)c2c1C1CCC2C1 (centres unmarked)	88.3
CCC(C)(C)NC(=O)c1nn(-c2ccc(F)cc2F)c2c1C1CCC2C1 (centres unmarked)	98.2

====

melting point reference
MEASUREMENT_LABEL: melting point (°C)

O=C(NCc1ccc(F)cc1F)c1nn(-c2ccc(Cl)cc2)c2c1C1CC3CC(C1)CC2C3 [Example 114]	185
COc1ccc(-n2nc(C(=O)NNc3ccc(Cl)cc3Cl)c3c2C2CC4CC(CC3C4)C2)cc1 [Example 165]	199
Cl.O=C(NNc1ccc(F)cc1)c1nn(-c2ccc(Cl)cc2)c2c1C1CC3CC(C1)CC2C3 [Example 131]	175
O=C(NN1CCCCC1)c1nn(-c2ccccc2Br)c2c1C1CCC2C1 (centres unmarked) [Example 270]	236

====

TARGET_DESC: hCB1 (Homo sapiens, UniProt P21554)
Sequence (P21554 whole entry): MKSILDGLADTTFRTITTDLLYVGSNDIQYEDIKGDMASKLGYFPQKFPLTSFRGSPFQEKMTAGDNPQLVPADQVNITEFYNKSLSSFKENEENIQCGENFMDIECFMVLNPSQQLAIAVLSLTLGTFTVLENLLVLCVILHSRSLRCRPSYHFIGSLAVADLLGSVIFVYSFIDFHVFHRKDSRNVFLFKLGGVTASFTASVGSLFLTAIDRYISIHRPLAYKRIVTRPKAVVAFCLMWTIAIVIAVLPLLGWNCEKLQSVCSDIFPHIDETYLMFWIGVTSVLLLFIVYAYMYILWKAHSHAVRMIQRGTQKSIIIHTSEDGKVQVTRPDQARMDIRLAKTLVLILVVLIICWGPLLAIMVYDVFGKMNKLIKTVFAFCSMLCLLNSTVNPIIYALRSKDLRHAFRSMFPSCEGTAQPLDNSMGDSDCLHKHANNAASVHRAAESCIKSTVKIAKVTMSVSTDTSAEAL
RUN_DESCRIPTION: Agonism of CB1 receptors expressed in CHO cells, forskolin cAMP assay (Protocol IX.2)
Format: cell-based
Parameters: expressed in transfected cells; host or cells: CHO (h-CB1/CHO, G418-selected)
ASSAY_SETUP: CHO, at 10 uM, h-CB1/CHO cells, cAMP
Method: IX. Assay for Determining Agonist and Antagonist Activity to CB1 and CB2 Receptors 2. Agonism of CB1/CB2 Receptors Expressed in CHO Cells h-CB1/CHO or h-CB2/CHO cells were grown in HAM's F12 DMEM medium (Sigma) with 10% FBS (Hyclone), 1% penicillin-streptomycin solution and 400 μg/ml of G418 (Sigma). […] At the end of incubation, cells were lysed using lysis reagent from the cAMP estimation kit and cAMP was quantitated by chemiluminescence method described in the manufacturer's instructions (DiscoveRX). […]
activation at 10 µM reference
MEASUREMENT_LABEL: activation at 10 µM (%)

O=C(NC1CCC1)c1nn(-c2ccc(F)cc2F)c2c1C1CCC2C1 (stereo not drawn)	12.6
O=C(NC1CCCCC1)c1nn(-c2ccc(Br)cc2)c2c1C1CCC2C1 (stereo not drawn)	16.4
O=C(NC1CCCCC1)c1nn(-c2ccccc2)c2c1C1CCC2C1 (stereo not drawn)	0
O=C(NCC1CC1)c1nn(-c2ccc(F)cc2F)c2c1C1CCC2C1 (stereo not drawn)	3.41
O=C(NNc1ccc(Cl)cc1Cl)c1nn(-c2ccc(F)cc2F)c2c1C1CC3CC(C1)CC2C3	61.1
CC(C)(C)NC(=O)c1nn(-c2ccc(F)cc2)c2c1C1CCC2C1 (stereo not drawn)	0
O=C(NCc1ccc(Cl)cc1Cl)c1nn(-c2ccc(Cl)cc2Cl)c2c1C1CCC2C1 (stereo not drawn)	37
O=C(Nc1ccc(F)cc1F)c1nn(-c2ccc(Cl)cc2Cl)c2c1C1CCC2C1 (stereo not drawn)	0
O=C(NCc1ccccc1F)c1nn(-c2ccc(Cl)cc2Cl)c2c1C1CCC2C1 (stereo not drawn)	0
O=C(NNc1ccccc1F)c1nn(-c2ccc(F)cc2F)c2c1C1CCC2C1 (stereo not drawn)	0
CN(NC(=O)c1nn(-c2ccc(Cl)cc2)c2c1C1CCC2C1)C1CCCCC1 (stereo not drawn)	0
O=C(NCc1ccccc1Cl)c1nn(-c2ccc(Cl)cc2)c2c1C1CCC2C1 (stereo not drawn)	0
